Numbers sourced from patent US8088800B2.

In this section, each of the compounds is paired with its reported Kb.
Molecular target: cloned human delta opioid receptor (Homo sapiens)
Construct: expressed in transfected cells
Sequence (P41143 whole entry): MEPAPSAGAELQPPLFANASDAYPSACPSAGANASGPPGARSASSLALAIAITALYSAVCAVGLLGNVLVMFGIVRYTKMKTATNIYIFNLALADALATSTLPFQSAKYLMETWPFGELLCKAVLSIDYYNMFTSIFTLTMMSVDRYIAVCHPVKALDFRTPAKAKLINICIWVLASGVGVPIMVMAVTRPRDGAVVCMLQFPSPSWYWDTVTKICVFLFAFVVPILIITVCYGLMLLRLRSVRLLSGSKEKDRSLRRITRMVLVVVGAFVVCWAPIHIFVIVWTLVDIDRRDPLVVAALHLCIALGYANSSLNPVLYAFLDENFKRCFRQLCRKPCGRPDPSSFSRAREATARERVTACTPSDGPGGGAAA
Test: GTP-γ-S binding assay, antagonist potency (Kb), delta
Assay type: biochemical
Settings: functional antagonist potency vs DPDPE 30 nM; Cheng-Prusoff

Would you please look over these solved cases?
[[record]]
compound = "COc1ccc(CCNCc2ccc3c(ccn3Cc3ccc(C(N)=O)cc3)c2)cc1 [Example 11]"
readout_label = "Kb"
recorded_measurement = "> 50 nM"

[[record]]
compound = "NC(=O)c1ccc(CN2CCc3cc(CNCCc4cccs4)ccc32)cc1 [Example 4]"
readout_label = "Kb"
recorded_measurement = "19.2 nM"

[[record]]
compound = "NC(=O)c1ccc(Cn2ccc3cc(CNCCc4cccs4)ccc32)cc1 [Example 2]"
readout_label = "Kb"
recorded_measurement = "15 nM"


The value of Kb measured for the compound CC(C)CCNCc1ccc2c(c1)CCN2Cc1ccc(C(N)=O)cc1 [Example 5] turned out to be 24.3 nM

* * *

Target: kappa opioid receptor (Homo sapiens, UniProt P41145)
Sequence (P41145 whole entry): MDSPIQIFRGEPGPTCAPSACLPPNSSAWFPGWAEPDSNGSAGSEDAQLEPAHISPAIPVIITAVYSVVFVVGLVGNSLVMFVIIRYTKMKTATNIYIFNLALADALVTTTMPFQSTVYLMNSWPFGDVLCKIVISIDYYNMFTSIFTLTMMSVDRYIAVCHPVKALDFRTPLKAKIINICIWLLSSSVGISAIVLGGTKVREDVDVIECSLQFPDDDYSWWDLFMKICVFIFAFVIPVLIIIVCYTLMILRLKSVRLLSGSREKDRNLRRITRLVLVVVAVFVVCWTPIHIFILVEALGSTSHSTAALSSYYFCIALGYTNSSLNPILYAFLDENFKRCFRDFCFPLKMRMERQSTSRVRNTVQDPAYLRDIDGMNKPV
Assay: opioid receptor binding assay (Ki), kappa
Could you mark each record Met if its Ki falls strictly under 400 nM, and Not met if it equals or exceeds it?

[[record]]
smiles_representation = "COc1ccc(CCNCc2ccc3c(ccn3Cc3ccc(C(N)=O)cc3)c2)cc1"
label = "Not met"

[[record]]
smiles_representation = "NC(=O)c1ccc(Cn2ccc3cc(CNCCc4ccccc4F)ccc32)cc1"
label = "Met"

[[record]]
smiles_representation = "CC(C)CCNCc1ccc2c(c1)CCN2Cc1ccc(C(N)=O)cc1"
label = "Met"

[[record]]
smiles_representation = "NC(=O)c1ccc(Cn2ccc3cc(CNCCO)ccc32)cc1"
label = "Not met"

[[record]]
smiles_representation = "CCCCCCNCc1ccc2c(ccn2Cc2ccc(C(N)=O)cc2)c1"
label = "Met"

[[record]]
smiles_representation = "NC(=O)c1ccc(CN2CCc3cc(CNCCc4cccs4)ccc32)cc1"
label = "Met"

[[record]]
smiles_representation = "CC(C)CCNCc1ccc2c(ccn2Cc2ccc(C(N)=O)cc2)c1"
label = "Met"

[[record]]
smiles_representation = "CC(C)(C)CCNCc1ccc2c(c1)CCN2Cc1ccc(C(N)=O)cc1"
label = "Met"

[[record]]
smiles_representation = "NC(=O)c1ccc(Cn2ccc3cc(CNCCCc4ccccc4)ccc32)cc1"
label = "Met"


Now for another entry.
query: Here's an entry: CC(C)(C)CCNCc1ccc2c(ccn2Cc2ccc(C(N)=O)cc2)c1 . Is its Ki below 400 nM?
result: Met

* * *

In this section, each of the compounds is paired with its reported Kb.
Biological target: cloned human mu opioid receptor (Homo sapiens, UniProt P35372)
Construct: expressed in transfected cells
Sequence (P35372 whole entry): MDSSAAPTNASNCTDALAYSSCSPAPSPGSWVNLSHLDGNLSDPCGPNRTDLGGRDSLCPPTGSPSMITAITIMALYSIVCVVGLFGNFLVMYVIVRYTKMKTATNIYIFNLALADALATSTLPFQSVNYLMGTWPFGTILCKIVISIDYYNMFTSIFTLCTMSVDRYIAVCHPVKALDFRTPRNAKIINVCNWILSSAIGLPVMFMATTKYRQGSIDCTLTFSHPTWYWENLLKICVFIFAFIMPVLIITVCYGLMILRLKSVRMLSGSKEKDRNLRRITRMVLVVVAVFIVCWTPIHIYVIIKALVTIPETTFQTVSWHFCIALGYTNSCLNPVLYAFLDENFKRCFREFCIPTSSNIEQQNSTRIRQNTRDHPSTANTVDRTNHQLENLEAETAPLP
Assay: GTP-γ-S binding assay, antagonist potency (Kb), mu
Assay type: biochemical
Details: functional antagonist potency vs DAMGO 1 micromolar; Cheng-Prusoff
Procedure: The functional antagonist potency (Kb) of the sample compounds was determined using the GTPγS binding assay. GTPgS-based functional assays provide an in vitro measure of the activity of opioid agonists and antagonists. Opioid reference compounds or test compound are incubated with membrane homogenate from cells expressing the cloned human mu, kappa or delta opioid receptor and radiolabeled [35S]GTPgS. […]
Report as a plain number; the unit nM is understood.

Would you please look over these solved cases?
[[record]]
smiles_representation = "CC(C)(C)CCNCc1ccc2c(c1)CCN2Cc1ccc(C(N)=O)cc1"
unit_annotation = "nM"
recorded_measurement = 4

[[record]]
smiles_representation = "NC(=O)c1ccc(Cn2ccc3cc(CNCCc4ccccc4F)ccc32)cc1"
unit_annotation = "nM"
recorded_measurement = 6.2

[[record]]
smiles_representation = "CCCCCCNCc1ccc2c(ccn2Cc2ccc(C(N)=O)cc2)c1"
unit_annotation = "nM"
recorded_measurement = 5.8

[[record]]
smiles_representation = "COc1ccc(CCNCc2ccc3c(ccn3Cc3ccc(C(N)=O)cc3)c2)cc1"
unit_annotation = "nM"
recorded_measurement = 8.4


The value of Kb measured for the compound CC(C)(C)CCNCc1ccc2c(ccn2Cc2ccc(C(N)=O)cc2)c1 turned out to be 4.4
